# study.system: TetR (class B, Tn10) (UniProt P04483)
# Sequence (P04483 whole entry): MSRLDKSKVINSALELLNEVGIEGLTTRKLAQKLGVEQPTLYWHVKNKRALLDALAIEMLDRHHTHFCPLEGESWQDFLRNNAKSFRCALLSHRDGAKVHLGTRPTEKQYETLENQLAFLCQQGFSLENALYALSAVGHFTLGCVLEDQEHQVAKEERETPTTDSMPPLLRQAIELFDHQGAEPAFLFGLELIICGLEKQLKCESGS
# test.summary: TetR repression strength (sort-seq, GFP reporter) (relative to tetO2 = 1); higher = stronger repression
# measurement.parameters: E. coli
In all, about 18,000 sequences were measured (“TetR repression strength (sort-seq, GFP reporter)”: median about 0.23, highest 2% from about 0.68 on). The entries come from a sample that favours the highest values as a whole.
Rule: TetR repression strength of 0.7 or more gives YES; anything lower gives NO.

Use the examples below as a reference point.
[[record]]
sequence_entry = "TCCCGACTAGTTAGTGAGA"
study_system = "TetR (class B, Tn10) (UniProt P04483)"
classification = "NO"

[[record]]
sequence_entry = "TCCCTTGGAGTGGTAGAGA"
study_system = "TetR (class B, Tn10) (UniProt P04483)"
classification = "NO"

[[record]]
sequence_entry = "TCCCCAGCAGTGATAGAGA"
study_system = "TetR (class B, Tn10) (UniProt P04483)"
classification = "NO"


Ask: Quick check: does `TCCCAAACAGTGACAGAGA` have TetR repression strength greater than or equal to 0.7?
Result: NO

Ask: Quick check: does `TCCCCTATAGTGATAGAGA` have TetR repression strength greater than or equal to 0.7?
Result: YES

Ask: Quick check: does `TCCCCATCAGTGATAGAGA` have TetR repression strength greater than or equal to 0.7?
Result: YES

Hello, the source for this data is a collection of fitness landscapes (doi:10.1038/s41467-024-54723-y), in case you need it.
